STUDY_TARGET: T1, human IL-33 (mm2) (human, UniProt O95760 112-270)
T1 chain: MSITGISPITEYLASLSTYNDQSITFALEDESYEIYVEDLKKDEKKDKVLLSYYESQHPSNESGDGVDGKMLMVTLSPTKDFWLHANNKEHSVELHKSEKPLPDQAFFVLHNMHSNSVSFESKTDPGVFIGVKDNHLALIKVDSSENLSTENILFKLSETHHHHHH
PROTOCOL: cell-based or functional assay

{"columns": ["BINDER", "IC50, HEK293 ST2 NFkB"],
 "data": [
  ["IL33-172 (antibody, human IgG1, kappa, V domains shown) VH: EVQLVESGGGLVQPGGSLRLSCAASGFTFSSYWMYWVRQAPGKGLEWVAAITPNAGEDYYPESVKGRFTISRDNAKNSLYLQMNSLRAEDTAVYYCARGHYYYTSYSLGYWGQGTLVTVSS VL: DIQMTQSPSSLSASVGDRVTITCKASQNINKHLDWYQQKPGKAPKLLIYFTNNLQTGVPSRFSGSGSGTDFTLTISSLQPEDFATYYCFQYNNGWTFGGGTKVEIKR", "0.201 nM"],
  ["IL33-156 (antibody, human IgG1, kappa, V domains shown) VH: EVQLVESGGGLVQPGGSLRLSCAASGFTFSSYWMYWVRQAPGKGLEWVAAITPNGGEDYYPESVKGRFTISRDNAKNSLYLQMNSLRAEDTAVYYCARGHYYYTSYSLGYWGQGTLVTVSS VL: DIQMTQSPSSLSASVGDRVTITCKASQNINKHLDWYQQKPGKAPKLLIYFTNNLQTGVPSRFSGSGSGTDFTLTISSLQPEDFATYYCFQYNQGWTFGGGTKVEIKR", "0.116 nM"],
  ["IL33-175 (antibody, human IgG1, kappa, V domains shown) VH: EVQLVESGGGLVQPGGSLRLSCAASGFTFSSYWMYWVRQAPGKGLEWVAAITPNAGETYYPESVKGRFTISRDNAKNSLYLQMNSLRAEDTAVYYCARGHYYYTSYSLGYWGQGTLVTVSS VL: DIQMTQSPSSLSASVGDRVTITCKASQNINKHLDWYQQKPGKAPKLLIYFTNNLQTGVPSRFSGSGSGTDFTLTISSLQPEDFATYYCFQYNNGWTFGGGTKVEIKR", "0.059 nM"],
  ["IL33-187 (antibody, human IgG1, kappa, V domains shown) VH: EVQLVESGGGLVQPGGSLRLSCAASGFTFSSYWMYWVRQAPGKGLEWVAAITPNAGETYYPDSVKGRFTISRDNAKNSLYLQMNSLRAEDTAVYYCARGHYYYTSYSLGYWGQGTLVTVSS VL: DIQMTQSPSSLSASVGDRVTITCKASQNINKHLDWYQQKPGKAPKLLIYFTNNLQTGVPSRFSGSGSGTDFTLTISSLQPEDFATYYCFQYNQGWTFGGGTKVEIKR", "0.15 nM"]
]}
